For each entry below, report its composite z-score value.
Test system: PRMT1 (protein arginine N-methyltransferase 1)
Protocol notes: small molecules binding arginine methyltransferase PRMT1 – biochemical, small-molecule microarray, 635 nm fluorescence, primary screen (AID 1088);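 also: binding of Prmt1 protein to compounds spotted on small-molecule microarray slides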
Assay setup: higher = more signal
One number for each entry.

Molecule: CO[C@H]1O[C@H](CO)[C@@H](OC(=O)Nc2ccccc2-c2ccccc2)[C@H](OC(=O)Nc2ccccc2-c2ccccc2)[C@@H]1OC(=O)Nc1ccccc1-c1ccccc1
composite z-score: 1.54
--
Molecule: COCCCNC(=O)[C@@]1(CCS(=O)(=O)c2ccccc2)N=C(c2ccc(OCCCO)cc2)O[C@H]1c1ccccc1N=[N+]=[N-]
composite z-score: 1.53
--
Molecule: O=C(CS)NCCCCCNC(=O)[C@H]1C[C@H]2C(=O)NCC(=O)N2[C@H]1c1cccc(OCCO)c1
composite z-score: 0.151

Working through the 4 molecules below one at a time, give composite z-score for each.
1. O=C1C2C=CC(C(O)C=Cc3ccc([N+](=O)[O-])cc3)N(Nc3ccccc3F)C2C(=O)N1c1ccccc1 (configuration not stated)
2. CC(=O)n1cc(C(O)C2C=CC3C(=O)NC(=O)C3N2Nc2ccccn2)c2ccccc21 (configuration not stated)
3. C=C(CCCC)/C(=C/C[C@H](OC(C)=O)c1ccc(OCCO)cc1)c1cnc2ccccc2c1
4. O=C1OCCC=C[C@H]2OC34C=CCN(Cn5nnc6ccccc65)C(=O)[C@H]3N(CCO)C(=O)[C@@H]4C12 (some centres not stated)

[1.57, 0.553, 1.53, -0.312]

====

Protocol notes: probe aNOTCH2 binding on compound microarray – biochemical, small-molecule microarray, 635/667 nm fluorescence, primary screen (AID 1121);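 also: score merges feature fluorescence read at 667 nm with its signal to noise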
Assay setup: higher = more signal
For each entry below, report its composite z-score value.

Compound smiles: COC(=O)[C@@]1(Cc2ccc(OC)cc2)[C@H]2c3cc(C(=O)N4CCCC4)n(Cc4nc5ccccc5[nH]4)c3C[C@H]2CN1C(=O)c1ccccc1
composite z-score: 0.013

Working through the 4 molecules below one at a time, give composite z-score for each.
1. C=C(C(=O)CC[C@H](OC(C)=O)c1ccccc1OCCO)C(C)C
2. CC(C)[Si](C#CCCCC#N)(Oc1ccccc1Br)C(C)C
3. C=C(CCCC)C(=O)CC[C@@H](OC(C)=O)c1ccc(CO)o1
4. COC(=O)[C@@]1(Cc2ccc(F)cc2)[C@H]2c3cc(C(=O)N(C)C)n(Cc4ccc(C)o4)c3C[C@H]2CN1C(=O)c1ccccc1

1: -0.0325; 2: -0.092; 3: -0.108; 4: 0.992

====

For each entry below, report its z-score value.
Tested target: NADPH oxidase 2 (Homo sapiens)
Protocol notes: compounds shifting NOX2 Amplex Red fluorescence – cell-based, HEK293-NOX2, PMA-stimulated, NOX inhibitor project, primary screen (AID 1159); also: test concentration not given here
Assay setup: 45 min, higher = more signal, called active from +8 up or from −8 down
Calls of active or inactive are those of the source.

# annotated cases, reported z-score shown
Molecule: COC(=O)[C@@]1(Cc2ccc(OC)cc2)[C@H]2c3cc(C(=O)N(C)C)n(Cc4ccc(C(F)(F)F)nc4)c3C[C@H]2CN1C(=O)c1ccccc1
z-score: 0.152 (inactive)

Molecule: CC(C)(C)OC(=O)CC[C@]1(C(N)=O)N=C(c2ccc(OCCCO)cc2)O[C@H]1c1ccccc1
z-score: 0.266 (inactive)

Molecule: O=C1C[C@@](C(=O)NCc2ccccc2)(c2ccc([N+](=O)[O-])cc2)[C@@H](c2ccc(CO)cc2)N1CC12CC3CC(CC(C3)C1)C2
z-score: 0.208 (inactive)

Molecule: COCCOC(=O)N1C(=O)[C@@]2(c3cc(C#CC4(O)CCCCCC4)ccc31)[C@H](C(=O)Nc1nc3ccccc3s1)[C@H]1C(=O)O[C@H](c3ccccc3)[C@H](c3ccccc3)N1[C@@H]2c1ccc(OCCO)cc1
z-score: 0.566 (inactive)

The measured z-score associated with COc1cc2c(cc1O)C(c1cccs1)N(Cc1cccc(OC(F)(F)F)c1)CC2 (stereo not given) reads -4.69 (inactive)

====

Tested target: Epidermal growth factor receptor (Homo sapiens)
Protocol notes: compounds binding epidermal growth factor receptor – biochemical, small-molecule microarray, 635 nm fluorescence, primary screen (AID 1104);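 also: score merges 667 nm emission intensity with spot signal to noise over triplicate slides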
Assay setup: EGFR binding, higher = more signal
Quick rule for you: composite z-score at -0.5 or higher means label 1, lower means label 0.

Worked examples follow.
Compound: CCCCC(=C=CC[C@@H](O)c1ccc(CO)o1)CCO
Label class: label 0

Compound: C=CC1c2cc(O)c(OC)cc2CCN1Cc1cccc(OC(F)(F)F)c1 (stereo unspecified)
Label class: label 1

Compound: COc1cc(OC)c(C(O)C2C=CC3C(=O)NC(=O)C3N2Nc2ccccn2)cc1Br (stereo unspecified)
Label class: label 1

Compound: COC(=O)C[C@H]1O[C@@H](CCc2ccccc2)[C@@H](C)[C@@H]1[Si](C)(C)c1ccc(OC)cc1
Label class: label 1

Let us examine a further case.
State whether the measured composite z-score reaches -0.5, counting equality as reaching it, for C=C(CCCC)C(=O)CC[C@H](OC(=O)c1cccnc1)c1ccc(OCCO)cc1
label 1

====

Protocol notes: blood-stage malaria parasite viability loss – strain 3D7, DAPI fluorescence, 100 nL, primary screen (AID 1184);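 also: parasites grown inside human red blood cells in medium with human serum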
Assay setup: P. falciparum 3D7 growth, 3 d, higher = more signal
Measured property: z-score
Numbers only.

Molecule: CC(C)[Si](C#CCCCC#N)(Oc1ccccc1Br)C(C)C
z-score: 0.306
--
Molecule: CS(=O)(=O)CCOC(=O)C1=CC(CCCO)=CC(c2ccc(CN3CCCC3)cc2)N(Cc2cccc(OC(F)(F)F)c2)C=C1C(=O)OCCS(C)(=O)=O (stereo not drawn)
z-score: -2.79

Please find the next molecule below.
The measured z-score associated with C#CCN(C/C=C/c1ccccc1)[C@H](CO)c1ccccc1 reads -0.213

====

Protocol notes: hepatitis C replication reporter changes, two-sided – Huh7 cells, luciferase reporter, HCV replication inhibitor project, primary screen (AID 1109);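 also: huh7 hepatoma cells harbouring a luciferase neomycin HCV replicon reporter; luciferase luminescence as measure of HCV replicon replication; test concentration not given here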
Assay setup: Huh7 HCV replicon luciferase reporter, 48 h; higher = more signal
Measured property: z-score

# annotated cases, reported z-score shown
Compound: COc1ccc([Si](C)(C)[C@@H]2[C@@H](CCO)O[C@]3(C(=O)N(Cc4cccc(N5CCOC5=O)c4)c4ccccc43)[C@H]2C)cc1
z-score: -4.17
//
Compound: CN(C)CCCCCCNC(=O)[C@@H]1C[C@@H]2C(=O)N3CCC[C@H]3C(=O)N2[C@@H]1c1ccc(O)cc1
z-score: 1.49
//
Compound: COC(=O)[C@@]1(Cc2ccc(F)cc2)[C@H]2c3cc(C(=O)N(C)C)n(Cc4cc(C)n(C)n4)c3C[C@H]2CN1C(=O)c1ccccc1
z-score: 0.107
//
Compound: CC(c1ccccc1)C(O)C1C=CC2C(=O)N(C)C(=O)C2N1NC(=O)OC(C)(C)C (configuration not stated)
z-score: 0.658
//
Compound: OCC1C=C(/C=C/c2ccccc2)CN1Cc1ccccc1Br (configuration not stated)
z-score: -1.92
//
Compound: Cc1ccc(S[C@]2(C(=O)NCC(C)C)CC(=O)N(Cc3cc(C(F)(F)F)cc(C(F)(F)F)c3)[C@@H]2c2ccc(CO)cc2)cc1
z-score: -0.297

Working through the 2 compounds below one at a time, give z-score for each.
1. CO[C@H]1O[C@H](CO)[C@@H](OC(=O)Nc2ccccc2)[C@@H]2OC(=O)[C@@H](Cc3ccc4ccccc4c3)C/C=C/C[C@H](Cc3ccc4ccccc4c3)C(=O)O[C@@H]12
2. CC(C)(C)OC(=O)CC[C@]1(C(N)=O)N=C(c2ccc(OCCCO)cc2)O[C@H]1c1ccccc1

1. -2.92
2. 0.666

Working through the 4 compounds below one at a time, give z-score for each.
1. CC(C)[C@@H](C(=O)O)n1cc(C2(O)CCCCC2)nn1
2. [N-]=[N+]=Nc1ccccc1[C@H]1OC(c2ccc(OCCCO)cc2)=N[C@@]1(CCS(=O)(=O)c1ccccc1)C(=O)NCc1ccccc1
3. COc1cc2c(cc1O)C(c1cccs1)N(Cc1ccc([N+](=O)[O-])o1)CC2 (configuration not stated)
4. CN(C)CCCCCCNC(=O)[C@@H]1C[C@@H]2C(=O)N[C@@H](CCCC[N+](C)(C)C)C(=O)N2[C@@H]1c1ccc(O)cc1

[-0.465, -0.242, -0.213, 1.61]

====

Tested target: Follistatin-related protein 3 (Homo sapiens)
Protocol notes: compounds binding follistatin-related protein 3 – biochemical, small-molecule microarray, 635 nm fluorescence, primary screen (AID 1105);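 also: score merges emission near 667 nm and signal to noise per printed spot across three slides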
Assay setup: FSTL3 binding, higher = more signal
Measured property: composite z-score
One number for each entry.

# annotated cases, reported composite z-score shown
Compound: COc1cc2c(cc1O)C(c1cccs1)N(Cc1ccc([N+](=O)[O-])o1)CC2 (centres undefined)
Tested target: Follistatin-related protein 3 (Homo sapiens)
composite z-score: -0.0839
//
Compound: O=C1C2C=CC(C(O)c3ccc(F)cc3)N(Nc3ccc([N+](=O)[O-])cc3)C2C(=O)N1c1ccccc1 (centres undefined)
Tested target: Follistatin-related protein 3 (Homo sapiens)
composite z-score: 0.558

Working through the 6 compounds below one at a time, give composite z-score for each.
1. O=C1OCCC=C[C@H]2OC34C=CCN(CCN5CCOCC5)C(=O)[C@H]3N(CCCCCO)C(=O)[C@@H]4C12 (some centres undefined)
2. CO[C@H]1O[C@H](CO)[C@@H](OC(=O)Nc2ccccc2-c2ccccc2)[C@H](OC(=O)Nc2ccccc2-c2ccccc2)[C@@H]1OC(=O)Nc1ccccc1-c1ccccc1
3. CCCCN1CC=CC23O[C@@H]4/C=C\CCCOC(=O)C4[C@H]2C(=O)N(CCCO)[C@@H]3C1=O (some centres undefined)
4. O[C@@H](Cc1ccccc1)[C@@H](/C=C/C1CC1)NCc1cccc(Cl)c1
5. CCCNC(=O)[C@@]1(Sc2ccc(C)cc2)CC(=O)N(Cc2ccccc2C(F)(F)F)[C@@H]1c1ccc(CO)cc1I
6. C=CCNC(=O)[C@H]1[C@@H]2C(=O)O[C@@H](c3ccccc3)[C@@H](c3ccccc3)N2[C@@H](c2ccc(OCCO)cc2)[C@]12C(=O)Nc1ccc(C#CCC(C(=O)OC)C(=O)OC)cc12

1: -0.379; 2: 1.03; 3: -0.946; 4: -0.78; 5: 1.01; 6: 1.25
